Recorded EC50 (read off the curve) for the following binders
# ASSAY TARGET: T1, human CD20 (human, UniProt P11836 1-297)
# T1 construct: whole, on cells; Never used as a purified protein; also called hCD20; Bp35
# T1 sequence (looked up): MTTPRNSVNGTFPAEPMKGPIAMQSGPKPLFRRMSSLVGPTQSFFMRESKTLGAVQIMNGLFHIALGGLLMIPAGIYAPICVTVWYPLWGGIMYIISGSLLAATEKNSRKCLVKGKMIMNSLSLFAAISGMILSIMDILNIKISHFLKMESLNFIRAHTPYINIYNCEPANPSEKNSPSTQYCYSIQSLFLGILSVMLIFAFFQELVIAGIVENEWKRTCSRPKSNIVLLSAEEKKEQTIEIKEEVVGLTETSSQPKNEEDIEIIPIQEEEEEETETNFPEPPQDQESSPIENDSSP
# ASSAY METHOD TEXT: fixed Ramos cell ELISA, Fab 1 h, anti-His6 peroxidase, OD 450 (overall binding)
QUANTITY: EC50 (read off the curve)

BINDER: AME 33 Fab (Fab, V domains shown, Fab) VH: EVQLVQSGAEVKKPGESLKISCKGSGRTFTSYNMHWVRQMPGKGLEWMGAIYPLTGDTSYNQKSKLQVTISADKSISTAYLQWSSLKASDTAMYYCARSTYVGGDWQFDVWGKGTTVTVSS VL: EIVLTQSPGTLSLSPGERATLSCRASSSVPYIHWYQQKPGQAPRLLIYATSALASGIPDRFSGSGSGTDFTLTISRLEPEDFAVYYCQQWLSNPPTFGQGTKLEIK
QUANTITY: EC50 (read off the curve)
RESULT: ~0.08 µg/mL

BINDER: AME 4H5 Fab (Fab, V domains shown, Fab, His-tagged (anti-His6 detection); constant regions and tag not given) VH: QVQLVQSGAEVKKPGASVKVSCKASGYTFTSYNMHWVRQAPGQGLEWMGAIYPGNGDTSYNQKFKWRVTMTRDTSTSTVYMELSSLRSEDTAVYYCARSTYYGGDWQFDQWGKGTTVTVSS VL: DIQMTQSPSSLSASVGDRVTITCRASSSVHYIHWYQQKPGKVPKLLIYATSNLASGVPSRFSGSGSGTDFTLTISSLQPEDVATYYCQQWTFNPPTFGGGTKVEIK
QUANTITY: EC50 (read off the curve)
RESULT: ~0.06 µg/mL

BINDER: AME 15 Fab (Fab, V domains shown, Fab, His-tagged (anti-His6 detection); constant regions and tag not given) VH: EVQLVQSGAEVKKPGESLKISCKGSGYTFTSYNMHWVRQMPGKGLEWMGAIYPLNGDTSYNRKSKLQVTISADKSISTAYLQWSSLKASDTAMYYCARSTYVGGDWTFDVWGKGTTVTVSS VL: EIVLTQSPGTLSLSPGERATLSCRASSSVPYIHWYQQKPGQAPRLLIYATSNLASGIPDRFSGSGSGTDFTLTISRLEPEDFAVYYCQQWLSNPPTFGQGTKLEIK
QUANTITY: EC50 (read off the curve)
RESULT: ~0.05 µg/mL

BINDER: AME 18 Fab (Fab, V domains shown, Fab, His-tagged (anti-His6 detection); constant regions and tag not given) VH: EVQLVQSGAEVKKPGESLKISCKGSGRTFTSYNMHWVRQMPGKGLEWMGAIYPLTGDTSYNQKFKLQVTISADKSISTAYLQWSSLKASDTAMYYCARSYYVGGDWTFDVWGKGTTVTVSS VL: EIVLTQSPGTLSLSPGERATLSCRASSSVPYIHWYQQKPGQAPRLLIYATSALASGIPDRFSGSGSGTDFTLTISRLEPEDFAVYYCQQWLSNPPTFGQGTKLEIK
QUANTITY: EC50 (read off the curve)
RESULT: ~0.06 µg/mL

BINDER: AME 1D10 Fab (Fab, V domains shown, Fab, His-tagged (anti-His6 detection); constant regions and tag not given) VH: EVQLVQSGAEVKKPGESLKISCKGSGYTFTSYNMHWVRQMPGKGLEWMGAIYPLNGDTSYNQKFKLQVTISADKSISTAYLQWSSLKASDTAMYYCARSTYVGGDWTFDVWGKGTTVTVSS VL: EIVLTQSPGTLSLSPGERATLSCRASSSVPYIHWYQQKPGQAPRLLIYATSNLASGIPDRFSGSGSGTDFTLTISRLEPEDFAVYYCQQWLSNPPTFGQGTKLEIK
QUANTITY: EC50 (read off the curve)
RESULT: ~0.06 µg/mL
